Experiment: Assay 1: half-life and plasma clearance upon intravenous administration to beagle dogs
Assay type: in vivo
Settings: dog, iv dose up to 0.3 mg/kg, plasma, geometric mean, Phoenix PK/PD (Example 1: internal tool)
measurement name: clearance (mL/min/kg)
Express the result in mL/min/kg but write the number alone.

# example entries with known answers
smiles data	measurement
Cc1nn2c(C(C)C)c(C(=O)N[C@H]3CCc4ccccc43)cnc2c1-c1cc(Cl)c(F)c(Cl)c1	2.33
CCc1c(C(=O)N[C@H]2CCOc3ccccc32)cnc2c(-c3cc(F)cc(F)c3F)c(F)ccc12	10
Cc1nn2c(C(C)C)c(C(=O)N[C@H]3CCOc4ccccc43)cnc2c1-c1ccc(F)c(F)c1	3
Cc1nn2c(C(C)C)c(C(=O)N[C@H]3CCOc4ccccc43)cnc2c1-c1c(F)cccc1Cl	6.17
O=C(N[C@H]1CCOc2ccccc21)c1cnc2c(-c3cc(F)cc(F)c3F)c(F)ccc2c1N1CC(F)C1	0.833

Per the records, this compound ( O=C(N[C@H]1CCOc2ccccc21)c1cnc2c(-c3cc(F)cc(F)c3F)cccc2c1C1CCOCC1 ) has clearance equal to 17

Per the records, this compound ( O=C(N[C@H]1CCOc2ccccc21)c1cnc2c(-c3cc(F)cc(F)c3F)c(F)ccc2c1C1CS(=O)(=O)C1 ) has clearance equal to 11.5
